assay system: RET kinase Wild Type (Homo sapiens);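 further: HTRF kinase activity assay on RET enzyme, 1 h reaction at 22 °C, dual-wavelength readout as percent of control, DMSO-only wells as 100%, pre-quenched reactions as 0%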
Sequence (P07949 29-1114): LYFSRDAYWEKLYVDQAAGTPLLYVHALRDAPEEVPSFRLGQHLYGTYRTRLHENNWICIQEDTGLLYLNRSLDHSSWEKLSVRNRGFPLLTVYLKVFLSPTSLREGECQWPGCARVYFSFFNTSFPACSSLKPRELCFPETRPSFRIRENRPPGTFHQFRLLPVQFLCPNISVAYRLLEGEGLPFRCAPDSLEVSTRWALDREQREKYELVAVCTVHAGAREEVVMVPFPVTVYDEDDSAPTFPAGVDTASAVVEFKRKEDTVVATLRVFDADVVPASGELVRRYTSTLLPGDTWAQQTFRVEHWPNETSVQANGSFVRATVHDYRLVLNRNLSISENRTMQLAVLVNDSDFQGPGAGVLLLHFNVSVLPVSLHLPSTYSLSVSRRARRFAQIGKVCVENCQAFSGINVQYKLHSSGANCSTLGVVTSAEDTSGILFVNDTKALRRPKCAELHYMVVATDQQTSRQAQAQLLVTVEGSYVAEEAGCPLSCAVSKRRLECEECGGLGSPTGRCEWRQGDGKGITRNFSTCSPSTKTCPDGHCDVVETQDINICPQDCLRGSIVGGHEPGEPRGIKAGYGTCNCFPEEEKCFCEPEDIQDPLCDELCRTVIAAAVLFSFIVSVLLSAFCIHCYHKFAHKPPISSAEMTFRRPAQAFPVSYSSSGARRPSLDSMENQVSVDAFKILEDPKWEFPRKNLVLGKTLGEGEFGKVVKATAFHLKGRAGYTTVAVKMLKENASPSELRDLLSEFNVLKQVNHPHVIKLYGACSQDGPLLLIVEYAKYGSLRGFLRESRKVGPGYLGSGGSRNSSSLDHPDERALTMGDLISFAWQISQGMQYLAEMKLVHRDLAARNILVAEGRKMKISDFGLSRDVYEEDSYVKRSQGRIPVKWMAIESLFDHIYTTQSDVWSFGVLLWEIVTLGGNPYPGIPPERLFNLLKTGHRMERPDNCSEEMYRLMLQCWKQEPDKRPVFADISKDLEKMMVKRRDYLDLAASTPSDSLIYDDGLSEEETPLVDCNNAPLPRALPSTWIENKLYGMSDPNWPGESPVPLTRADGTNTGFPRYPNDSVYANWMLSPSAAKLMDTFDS
experiment summary: biochemical
reported property: pIC50
On this scale, pIC50 is minus log10 of a concentration expressed in M (mol/L).

Study these solved cases before continuing.
CC(C)n1c2c(c3c(N)ncnc31)-c1cc3cc(C#N)ccc3n1C(=O)NC2 [Example 78]
6.20
Cc1ccc2c(c1)cc1n2C(=O)NCc2c-1c1c(N)ncnc1n2C(C)C [Example 81]
7.72

Hello, please tell me recorded pIC50 for this one: COc1ccc2cc3n(c2c1)C(=O)NCc1c-3c2c(N)ncnc2n1C(C)C [Example 79]
6.45

Hello, please tell me recorded pIC50 for this one: CC(C)n1c2c(c3c(N)ncnc31)-c1cnn(C3CC3)c1C(=O)NC2 [Example 109, 2,2,2-trifluoroacetate]
5.75

Hello, please tell me recorded pIC50 for this one: CC(C)n1c2c(c3c(N)ncnc31)-c1ccc(Cl)c(F)c1C(=O)NC2 [Example 50]
5.66

Hello, please tell me recorded pIC50 for this one: CC(C)n1c2c(c3c(N)ncnc31)-c1cc3ccc(C(F)(F)F)cc3n1C(=O)NC2 [Example 82]
6.45

Hello, please tell me recorded pIC50 for this one: CC(C)n1c2c(c3c(N)ncnc31)-c1noc(C3CC3)c1CN(C)C2 [Example 31]
6.24

Hello, please tell me recorded pIC50 for this one: CC(C)n1c2c(c3c(N)ncnc31)-c1noc(C3CC3)c1[C@@H](O)CC2 (single isomer, unassigned) [Example 54]
7.89

Hello, please tell me recorded pIC50 for this one: Nc1ncnc2c1c1c(n2C2CCCC2)CC[C@@H](O)c2c-1noc2C1CC1 (single isomer, unassigned) [Example 125]
7.96

Hey, just so you know, these numbers are from patent US11964988B2.
